Tested on: HepG2
run.description: cytotoxicity call (relative viability < 0.9)
conditions.used: 10 µM
The whole screen tested about 39,000 compounds, of which about 3,300 (8.5%) were called active. Only a selection was taken, and actives are over-represented in it overall.
One label from this list, please: active, inactive

Example entries begin here.
FC(F)(F)c1nc2ccccc2[nH]1	inactive
CC(C)NC(=O)Nc1cccc2c1O[C@H](CN(C)Cc1ccc(C(=O)O)cc1)[C@H](C)CN([C@H](C)CO)C2=O	inactive

Assay result, entry "C(=N\c1nc2ccccc2[nH]1)/N(c1ccccc1)c1ccccc1" — outcome?
active

So what was the verdict on "O=C1c2ccccc2-c2nc(-c3ccccc3)cc3cccc1c23" in this test?
inactive

# outcome recorded in this test, key = "C[C@@H]1CCCCO[C@@H](CN(C)Cc2ccc(Cl)c(Cl)c2)[C@H](C)CN([C@H](C)CO)C(=O)c2cc(NS(=O)(=O)c3ccc(Cl)cc3)ccc2O1"
active

Field: outcome | Entry: "[N-]=[N+]=Nc1ccccc1[C@@H]1OC(c2ccc(OCCCO)cc2)=N[C@]1(CCS(=O)(=O)c1ccccc1)C(=O)NC[C@@H](O)CO"
inactive

Fill in: this test's call for "COc1ccc(/C=C/CN2CCC(C(=O)N[C@@H](c3ccc(F)cc3)c3ccc4ccccc4n3)CC2)cc1" is ___
active

So what was the verdict on "[O-][NH2+][O-]" in this test?
inactive

Record request — test call for "C[C@@H]1CCCCO[C@@H](CN(C)C(=O)CCCN(C)C)[C@@H](C)CN([C@@H](C)CO)C(=O)c2cc(NC(=O)Nc3ccc(C(F)(F)F)cc3)ccc2O1"
inactive

Which result was noted for this molecule in the test: "Cc1ccc(S(=O)(=O)N(C)C[C@@H]2Oc3c(NC(=O)C4CCOCC4)cccc3C(=O)N([C@@H](C)CO)C[C@@H]2C)cc1"
inactive

What call does the record list for "C[C@@H]1CCCCO[C@@H](CN(C)Cc2ccc(Cl)c(Cl)c2)[C@@H](C)CN([C@H](C)CO)C(=O)c2cc(NS(=O)(=O)c3ccc(Cl)cc3)ccc2O1" ?
inactive

Answer briefly: the call reported for "O=C(N[C@H](c1ccc(F)cc1)c1ccc2ccccc2n1)C1CCN(CCOc2ccc(Cl)cc2)CC1" in this assay.
inactive

Just curious, what result did "Cn1cccc1C(=O)NCc1cn2c(n1)CN(S(C)(=O)=O)CC2" get here?
inactive

What was the test verdict on "C/C(C[P+](c1ccccc1)(c1ccccc1)c1ccccc1)=N\NC(=O)CCCCCC(=O)Nc1ccccc1O" ?
inactive

Hi, do you know how "Cc1noc(C)c1NC(=O)N(C)C[C@H]1Oc2ccc(NS(C)(=O)=O)cc2CC(=O)N([C@@H](C)CO)C[C@H]1C" came out in this test?
inactive

// param item: "O=C(N[C@@H](c1ccccc1)c1ccc2ccccc2n1)C1CCN(CCOc2ccc(Cl)cc2Cl)CC1" ; yields the recorded call
inactive

So what was the verdict on "COc1ccc(OCCN2CCC(C(=O)N[C@@H](c3ccc(F)cc3)c3ccc4ccccc4n3)CC2)cc1" in this test?
active

What is the recorded call for this molecule in the test? "C[C@H](CO)N1C[C@H](C)[C@H](CN(C)C(=O)c2ccccc2F)Oc2ncc(C#Cc3ccncc3)cc2C1=O"
inactive

* * *

Test system: HepG2
run.description: cytotoxicity call (relative viability < 0.9)
conditions.used: 10 µM
The whole screen tested about 39,000 compounds, of which about 3,300 (8.5%) were called active. The sample as a whole holds a higher share of actives than the screen did.
quantity.measured: cytotoxicity call

C[C@@H]1CN([C@H](C)CO)C(=O)c2c(c3ccccc3n2C)-c2ccccc2CO[C@@H]1CN(C)Cc1ccc(O)cc1	inactive
Cc1noc(C)c1NC(=O)N(C)C[C@H]1Oc2c(NC(=O)C3CCOCC3)cccc2C(=O)N([C@@H](C)CO)C[C@@H]1C	inactive
COc1ccc(NC(=O)N(C)C[C@H]2OCCCC[C@@H](C)Oc3ccc(NS(=O)(=O)c4ccc(C)cc4)cc3C(=O)N([C@@H](C)CO)C[C@@H]2C)cc1	inactive
Cc1ccc(NC(=O)N(C)C[C@@H]2OCCCC[C@H](C)Oc3ccc(NC(=O)C4CCCCC4)cc3C(=O)N([C@H](C)CO)C[C@@H]2C)cc1	inactive
COC(=O)Nc1nc2ccc(S(=O)c3ccccc3)cc2[nH]1 (stereo not drawn)	active

Hey, quick one: what's cytotoxicity call for each of these?
1. C[C@H](CO)N1C[C@H](C)[C@H](CN(C)Cc2ccc3c(c2)OCO3)Oc2ccc(NS(C)(=O)=O)cc2C1=O
2. COc1ccccc1C#Cc1cnc2c(c1)C(=O)N([C@@H](C)CO)C[C@@H](C)[C@H](CN(C)C(=O)c1ccc3c(c1)OCO3)O2
3. N=C(N)Nc1nc2ccccc2[nH]1

["inactive", "inactive", "inactive"]

* * *

Tested on: HepG2
run.description: cytotoxicity call (relative viability < 0.9)
conditions.used: 10 µM
In all, about 39,000 compounds went through this assay and about 3,300 (8.5%) were called active. For the sample, actives were picked, then their nearest neighbours and some compounds at random.
quantity.measured: cytotoxicity call

A selection of reference data follows.
C[C@H](CO)N1C[C@H](C)[C@H](CN(C)S(=O)(=O)c2cn(C)cn2)Oc2ccc(NC(=O)CCCN(C)C)cc2CC1=O	inactive
C[C@H]1CN([C@@H](C)CO)C(=O)c2cc(NS(=O)(=O)c3ccccc3)ccc2O[C@H]1CN(C)S(=O)(=O)c1cccs1	inactive
C[C@@H]1CN([C@H](C)CO)C(=O)Cc2cc(NC(=O)CCC(F)(F)F)ccc2O[C@@H]1CN(C)Cc1ccc(Oc2ccccc2)cc1	active
C[C@@H]1CN([C@H](C)CO)C(=O)Cc2cc(NC(=O)CCC(F)(F)F)ccc2O[C@H]1CN(C)Cc1ccc(Oc2ccccc2)cc1	active
C[C@H]1CN([C@@H](C)CO)C(=O)Cc2cc(NC(=O)CCC(F)(F)F)ccc2O[C@H]1CN(C)Cc1ccc(Oc2ccccc2)cc1	inactive
C[C@H]1CN([C@@H](C)CO)C(=O)Cc2cc(NC(=O)CCC(F)(F)F)ccc2O[C@@H]1CN(C)Cc1ccc(Oc2ccccc2)cc1	inactive

Switching to the query record.
Param item = "C[C@@H]1CN([C@@H](C)CO)C(=O)Cc2cc(NC(=O)CCC(F)(F)F)ccc2O[C@@H]1CN(C)Cc1ccc(Oc2ccccc2)cc1" ; retrieve measured cytotoxicity call.
active

* * *

Test system: HepG2
run.description: cytotoxicity call (relative viability < 0.9)
conditions.used: 10 µM
In all, about 39,000 compounds went through this assay and about 3,300 (8.5%) were called active. Shown is part of a subset that was picked to be rich in actives.
quantity.measured: cytotoxicity call

C[C@@H]1CN([C@@H](C)CO)C(=O)c2cc(N(C)C)ccc2O[C@H]1CN(C)S(=O)(=O)c1ccc(Cl)cc1	inactive
C[C@H]1CN([C@@H](C)CO)C(=O)c2cc(NC(=O)Nc3ccc(C(F)(F)F)cc3)ccc2O[C@@H]1CN(C)Cc1ccc(C(=O)Nc2ccccc2N)cc1	inactive
C[C@H](CO)N1C[C@H](C)[C@@H](CN(C)Cc2ccc(C(=O)Nc3ccccc3N)cc2)Oc2ccc(NC(=O)Nc3ccc(F)cc3)cc2C1=O	inactive

* * *

System: HepG2
run.description: cytotoxicity call (relative viability < 0.9)
conditions.used: 10 µM
About 3,300 (8.5%) of roughly 39,000 compounds were called active. The full list was thinned out, with actives kept by preference.
quantity.measured: cytotoxicity call

Past entries and their recorded results:
C[C@H]1CN([C@@H](C)CO)C(=O)c2cc(C3=CCCC3)cnc2O[C@@H]1CN(C)S(=O)(=O)c1cn(C)cn1	inactive
C[C@@H]1CCCCO[C@H](CN(C)S(=O)(=O)c2cccs2)[C@H](C)CN([C@@H](C)CO)C(=O)c2cc(NS(=O)(=O)c3cn(C)cn3)ccc2O1	inactive
C[C@H](CO)N1C[C@H](C)[C@@H](CN(C)Cc2ccc3c(c2)OCO3)Oc2ncc(C#CCN(C)C)cc2C1=O	inactive
C=CCNS(=O)(=O)c1cccc2nonc12	inactive
C=C(NC(=O)C(=C)NC(=O)c1csc(C2=N[C@@H]3c4csc(n4)[C@@H]4NC(=O)c5csc(n5)[C@H](C(C)(O)[C@@H](C)O)NC(=O)[C@H]5CSC(=N5)/C(=C/C)NC(=O)[C@H]([C@@H](C)O)NC(=O)c5csc(n5)[C@]3(CC2)NC(=O)[C@@H](C)NC(=O)C(=C)NC(=O)[C@@H](C)NC(=O)[C@@H]([C@H](C)CC)N[C@H]2C=Cc3c([C@@H](C)O)cc(nc3[C@@H]2O)C(=O)O[C@H]4C)n1)C(N)=O (stereo partly specified)	inactive

I'm hoping you can list cytotoxicity call for every molecule here, please.
1. Nc1nnc(SCC(=O)N2CCOCC2)[nH]1
2. C[C@H](CO)N1C[C@H](C)[C@H](CN(C)C(=O)CCCN(C)C)OCc2cn(nn2)CCCC1=O
3. C=CC(C)(O)CCC1C(C)(O)CCC2C(C)(C)CCCC21C (stereo unspecified)

inactive
inactive
inactive

For every item below, please supply its cytotoxicity call.
1. O=C(Cc1ccncc1)Nc1ccc2c(c1)[C@@H]1C[C@H](CC(=O)N3CCc4ccccc4C3)O[C@H](CO)[C@@H]1O2
2. C[C@@H]1CN([C@@H](C)CO)C(=O)c2c(c3ccccc3n2C)-c2ccccc2CO[C@H]1CN(C)S(C)(=O)=O
3. O=C(c1ccncc1)N1C[C@H]2[C@@H](c3ccccc31)[C@H](CO)N2C(=O)CN1CCOCC1
4. C[C@@H]1CCCCO[C@@H](CN(C)C(=O)c2ccncc2)[C@@H](C)CN([C@H](C)CO)C(=O)c2cc(NC(=O)C3CCCCC3)ccc2O1

inactive
inactive
inactive
inactive

Go through the list and state cytotoxicity call for each entry.
1. C[C@@H]1CCCCO[C@@H](CN(C)C(=O)Nc2cccc3ccccc23)[C@@H](C)CN([C@H](C)CO)C(=O)c2cc(NS(=O)(=O)c3ccccc3)ccc2O1
2. CC(=O)N1[C@@H]2c3cccc(=O)n3C[C@H]1[C@H](CO)[C@H]2C(=O)N1CCc2ccccc2C1
3. Cc1noc(C)c1NC(=O)N(C)C[C@H]1Oc2c(NS(=O)(=O)c3cn(C)cn3)cccc2C(=O)N([C@H](C)CO)C[C@@H]1C
4. Cc1noc(C)c1NC(=O)Nc1ccc2c(c1)C(=O)N([C@@H](C)CO)C[C@@H](C)[C@H](CN(C)C(=O)c1ccccc1)OCCCC[C@@H](C)O2

1. inactive
2. inactive
3. inactive
4. inactive
